Test: NCI Yeast Anticancer Drug Screen. Data for the rad50 strain (AID 155);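 further: 0% = growth of vehicle-only cultures of the same strain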
Conditions: S. cerevisiae rad50 strain growth inhibition; at 50.0 µM (retest, dose inferred, filed as 5.0)
Compounds without any hit were thinned out: in the full panel of roughly 79,000, 15% have a hit. The source made the active and inactive calls. No stated cut-off is given here; in the data, active means growth inhibition above about 70%; inactive means the rest.
Classes used: TRUE (active), FALSE (inactive)

Clc1ccnc2c1ccc1c(Cl)ccnc12 = FALSE
C=C(C)/C([O-])=N/[N+](C)(C)CC(O)CCCCCCCCCCCC (centres undefined) = TRUE
O=C(O)C1C2CC3CC(C2)CC1C3 (centres undefined) = FALSE
CC(=O)N[C@H]1CC[C@H]2[C@@H]3CCC4=CC(=O)CC[C@]4(C)[C@H]3CC[C@]12C = TRUE
CN(C)c1ccc(/C=C/c2nc3ccccc3[nH]2)cc1 = TRUE
COc1cccc(/C=C2\CCC(CN(C)C)C2=O)c1 (centres undefined) = TRUE
COc1ccc(/C=C2\Sc3scc(-c4ccc([N+](=O)[O-])cc4)[n+]3C2=O)cc1OC = FALSE
CCCCCCCCC(=O)Cl = TRUE
O=C1C=CC(=O)N1c1ccc(Cl)cc1 = TRUE

====

Assay: NCI Yeast Anticancer Drug Screen. Data for the mec2-1 strain (AID 157)
Settings: S. cerevisiae mec2-1 strain, at 50.0 µM, active compounds read high
The panel holds about 79,000 compounds, 15% with a hit somewhere; the sample as a whole holds those more often.
Lab note: anything with growth inhibition at or over 80% counts as t; the rest go in f.

CC(C)=NOCCOC(=O)C(c1ccccc1)c1ccccc1 = f
Nc1ccc(SC23CC4CC(CC(C4)C2)C3)cc1 = t
Cc1ccc(SCC#CC#CCS(=O)c2ccc(C)cc2)cc1 (stereo not given) = t
CCN=C(N)Nc1nc(-c2ccc(Cl)cc2)cs1 = t
C/C(=N/NC(=O)c1ccccc1S(N)(=O)=O)C(CN1CCCCC1)C(C1=C(O)C2C=CC=CC2OC1=O)c1ccccc1 (stereo not given) = t
CC(C)CC(C(=O)SCC(C)N1CCCC1)c1ccccc1 (stereo not given) = f
O=Cc1cc2ccccc2cc1C=O = t
Cc1c2cc[n+](C)cc2c(C)c2c1[nH]c1ccc(Cl)cc12 = t
CC/S(=N\S(=O)(=O)c1ccc(C)cc1)c1cccc[n+]1[O-] (stereo not given) = t
O=[N+]([O-])c1cccc2nc3ccccc3c(NCCNCCO)c12 = f
OCCN=C1c2ccccc2C2C(c3ccccc31)C1c3ccccc3C(=NCCO)c3ccccc3C21 (stereo not given) = f
CCOC(=O)C1=C(C)NC(=O)NC1c1coc2cc(C)cc(C)c2c1=O (stereo not given) = f
Cc1cccc2c1CC1(C2)Cc2c(C)cccc2C1=O (stereo not given) = f
CC(C)N(C(=O)CC1(O)CCCCC1)C(C)C = f
OCC1(c2ccccc2)OC1c1ccccc1 (stereo not given) = f

====

Examples of compounds with documented growth inhibition follow.
Test: NCI Yeast Anticancer Drug Screen. Data for the mec2-1 strain (AID 157)
Conditions: S. cerevisiae mec2-1 strain, at 50.0 µM (retest, dose inferred, filed as 5.0), active compounds read high
About 79,000 compounds went through this panel and 15% of them were active in at least one assay; those are over-represented in the sample as a whole.
Measured metric: growth inhibition (%)

c1ccc2c(c1)Cc1c-2nc2ccccc2c1N1CCOCC1 = 99
COc1ccc(C(=O)CC(=O)c2ccccc2)cc1 = 99
O=C(Cl)c1ccc(N=Nc2ccccc2)cc1 = 23
FC(F)(F)c1cccc(Nc2ccc3cnc4ccccc4c3c2)c1 = 97
CN(C)CCCNc1c2ccccc2nc2ccc(F)cc12 = 26
CCCCCCN(CCCCCC)CCCCCC = -7
O=C1CCC(Cc2ccc(Br)cc2)C(=O)N1 (stereo not given) = 1
COc1ccc(OC2OC(COC(c3ccccc3)(c3ccc(OC)cc3)c3ccc(OC)cc3)C(O)C(O)C2O)cc1 (stereo not given) = 98
O=C1C(Br)CCC1(c1ccccc1)c1ccccc1 (stereo not given) = 93
CN(/N=C\c1ccc2ccccc2c1)C1=NCCCN1 = 67
C(=C\c1cnnc2ccccc12)/c1cccnc1 = 37
CCCCC(CC)(COC(C)=O)COC(C)=O = 2
CCOc1ccc(C=Nc2ccc(/C=C(\C)C(=O)OCCC(C)C)cc2)cc1 = 99
C[n+]1c(-c2ccc(/C=N/Nc3ccnc(N/N=C/c4ccc(-c5cn6ccccc6[n+]5C)cc4)n3)cc2)cn2ccccc21 = 99
COc1ccc(NC2Oc3cc4c(cc3C(c3cccc(OC)c3OC)C2C)OCO4)cc1 (stereo not given) = -15
CCCCCCCCCCCCCCCC1C(N)C(=O)N(C)N1C (stereo not given) = 97
CSC(=S)NN=C1CCCC1 = 98
CC1OC(CC(=O)O)Cc2c1c(O)c1c(O)cc(-c3cc(=O)c4c(=O)c5c(c(=O)c=4c3=O)CC(CC(=O)O)OC5C)c(O)c1c2O (stereo not given) = 2
Cc1ccc(N=Nc2ncccc2O)cc1C = 95
c1ccc(CN(CCCOc2ccccc2)Cc2ccccc2)cc1 = 53
CC(C)Cn1cnc2c(SCc3cccc(F)c3)nc(N)nc21 = 12
CC1CCC2(NC1)OC1CC3[C@@H]4CC=C5C=CCC[C@]5(C)C4CC[C@]3(C)C1C2C (stereo not given in full) = 99
CCCCCCCCCCCC(N)c1ccccc1 (stereo not given) = 99
Clc1cc2c(c3ncccc13)OCN(CCc1ccccc1)C2 = -5
Cc1c2ccncc2cc2c1sc1ccncc12 = 97
Nc1ccc(N=Nc2ccccc2)c2ccccc12 = 98
O=C(NC(=Nc1ccccc1)SCCSC(=Nc1ccccc1)NC(=O)c1ccccc1)c1ccccc1 = 18
CN(C)CCCSc1c2ccccc2nc2cccc([N+](=O)[O-])c12 = -1
N/C(=N\OC1(c2ccccc2)OC(=O)C(=O)/C1=C(/O)c1ccccc1)c1ccccc1 (stereo not given) = 89
CC(C)c1cccc(O)c1O = 14
